Some compounds, each annotated with its measured Kochia plant response rating.
system: kochia (Kochia scoparia); assay: Test A preemergence, visual injury rating; format: in vivo; settings: 125 g ai/ha, 0 to 100 scale (0 no effect, 100 complete control)

- COMPOUND: "O=C(OCCC(F)(F)F)c1cc(Br)ccc1Oc1ncc(Cl)cn1 [Compound 94]"
  Kochia plant response rating: 0
- COMPOUND: "CC(C)(C)CCOC(=O)c1c(Br)cccc1Oc1ncc(Cl)cn1 [Compound 96]"
  Kochia plant response rating: 0
- COMPOUND: "N#Cc1ccc(Oc2ncc(Cl)cn2)c(C(=O)OCCC(F)(F)F)c1 [Compound 64]"
  Kochia plant response rating: 0
- COMPOUND: "CCC(C)OC(=O)c1c(Br)cccc1Oc1ncc(Cl)cn1 (centres unmarked) [Compound 84]"
  Kochia plant response rating: 0
- COMPOUND: "O=C(OC1CCCC1)c1c(Br)cccc1Oc1ncc(Cl)cn1 [Compound 44]"
  Kochia plant response rating: 0
- COMPOUND: "C=C(C)COC(=O)c1c(Br)cccc1Oc1ncc(Cl)cn1 [Compound 3]"
  Kochia plant response rating: 40
- COMPOUND: "O=C(SCC(F)(F)F)c1c(Br)cccc1Oc1ncc(Cl)cn1 [Compound 85]"
  Kochia plant response rating: 0
- COMPOUND: "C=C(Br)COC(=O)c1c(Br)cccc1Oc1ncc(Cl)cn1 [Compound 61]"
  Kochia plant response rating: 90
- COMPOUND: "O=C(OCCC(F)(F)F)c1c(F)cccc1Oc1ncc(Br)cn1 [Compound 41]"
  Kochia plant response rating: 30
- COMPOUND: "CC(=NOC(C)C)c1c(C#N)cccc1Oc1ncc(Cl)cn1 [Compound 69]"
  Kochia plant response rating: 30
- COMPOUND: "O=C(OCC1CCC1)c1c(Br)cccc1Oc1ncc(Cl)cn1 [Compound 8]"
  Kochia plant response rating: 0
- COMPOUND: "O=C(OCC(F)(F)F)c1c(Br)cccc1Oc1ncc(Br)cn1 [Compound 34]"
  Kochia plant response rating: 20
- COMPOUND: "O=C(OC(CCl)CCl)c1c(Br)cccc1Oc1ncc(Cl)cn1 [Compound 36]"
  Kochia plant response rating: 0
- COMPOUND: "O=C(OCCC(F)(F)F)c1c(Br)cccc1Oc1ncc(Br)cn1 [Compound 33]"
  Kochia plant response rating: 60
- COMPOUND: "CC(CN(C)C(=O)c1c(Br)cccc1Oc1ncc(Cl)cn1)C(F)(F)F (centres unmarked) [Compound 18]"
  Kochia plant response rating: 0
- COMPOUND: "CC(C)(C)OC(=O)c1c(F)cccc1Oc1ncc(Cl)cn1 [Compound 43]"
  Kochia plant response rating: 100
- COMPOUND: "C=C(Cl)COC(=O)c1c(Br)cccc1Oc1ncc(Cl)cn1 [Compound 2]"
  Kochia plant response rating: 70
- COMPOUND: "O=C(CCCC(F)(F)F)c1c(Br)cccc1Oc1ncc(Cl)cn1 [Compound 77]"
  Kochia plant response rating: 100
- COMPOUND: "O=C(NCCC(F)(F)F)c1c(Br)cccc1Oc1ncc(Cl)cn1 [Compound 93]"
  Kochia plant response rating: 0
- COMPOUND: "CCON=C(C)c1c(Br)cccc1Oc1ncc(Cl)cn1 [Compound 95]"
  Kochia plant response rating: 0

---

tested on: morningglory (Ipomoea coccinea); test: Test C postemergence, plant response rating; assay type: in vivo; conditions: 31 g ai/ha, scale 0 to 100
Some compounds, each annotated with its measured Plant response rating, Morningglory.

- MOLECULAR STRING: "N#CCCOC(=O)c1c(Br)cccc1Oc1ncc(Cl)cn1"
  TARGET ENTITY: "morningglory (Ipomoea coccinea)"
  Plant response rating, Morningglory: 25
- MOLECULAR STRING: "CCCC(=O)c1c(Br)cccc1Oc1ncc(Cl)cn1"
  TARGET ENTITY: "morningglory (Ipomoea coccinea)"
  Plant response rating, Morningglory: 15
- MOLECULAR STRING: "FC(F)(F)CCCCc1c(Br)cccc1Oc1ncc(Cl)cn1"
  TARGET ENTITY: "morningglory (Ipomoea coccinea)"
  Plant response rating, Morningglory: 55
- MOLECULAR STRING: "N#Cc1cccc(Oc2ncc(Cl)cn2)c1CCCC(F)(F)F"
  TARGET ENTITY: "morningglory (Ipomoea coccinea)"
  Plant response rating, Morningglory: 65
- MOLECULAR STRING: "CCCC(=O)c1c(Oc2ncc(Cl)cn2)cccc1C(F)(F)F"
  TARGET ENTITY: "morningglory (Ipomoea coccinea)"
  Plant response rating, Morningglory: 15
- MOLECULAR STRING: "FC(F)(F)CCCCc1c(Cl)cccc1Oc1ncc(Cl)cn1"
  TARGET ENTITY: "morningglory (Ipomoea coccinea)"
  Plant response rating, Morningglory: 15
